- target system: human thrombin (Homo sapiens)
property: IC50 (nM)

molecule: CCOC(=O)CN[C@@H](C(=O)N1CCC[C@H]1CCc1cc2ccc(C(=N)N)cc2n1CC)c1ccccc1 [Compound 38]
property: IC50
readout value: 7.59
//
molecule: CCOC(=O)CCCCN1CCC[C@@H]1C(=O)N1CCC[C@H]1CCc1cc2ccc(C(=N)N)cc2n1CC [Compound 128]
property: IC50
readout value: 26.2
//
molecule: CCn1c(CC[C@@H]2CCCN2C(=O)[C@H]2CCCN2C(=O)C2CCNCC2)cc2ccc(C(=N)N)cc21 [Compound 169]
property: IC50
readout value: 30.2
//
molecule: CCn1c(CC[C@@H]2CCCN2C(=O)[C@H](NS(C)(=O)=O)c2ccccc2)cc2ccc(C(=N)N)cc21 [Compound 37]
property: IC50
readout value: 5.4

###

- assay details: Pharmacokinetic test in rats (intravenous injection and oral administration)
- Type: in vivo, S.D. male rats
- conditions: rat, blood, iv, 10 mg/kg, rats, i.v. 10 mg/kg, 4.000 h
- Protocol: S.D. male rats weighing 200±20 g which had fasted overnight were subjected to cannulation at their femoral veins and arteries. […] The mixture was centrifuged (15,000 rpm, 5 min., 4° C.) to obtain quantitative amount of the supernatant which was then subjected to HPLC in Diode Array Detector at 254 nm to analyse the concentration of the test compound in the blood.

smiles record: CCn1c(CC[C@@H]2CCCN2C(=O)[C@H]2CCCN2CC(=O)O)cc2ccc(C(=N)N)cc21
unit abbreviation: ng/mL
concentration at 4 h: 35

###

- assay details: Pharmacokinetic test in rats (intravenous injection and oral administration)
- Format: in vivo, S.D. male rats
- conditions: rat, blood, iv, 10 mg/kg, rats, i.v. 10 mg/kg, 0.033 h

smiles record: CCn1c(CC[C@@H]2CCCN2C(=O)[C@H]2CCCN2CC(=O)O)cc2ccc(C(=N)N)cc21
concentration at 0.033 h [ng/mL]: 21700

###

- assay details: Pharmacokinetic test in rats (intravenous injection and oral administration)
- Type: in vivo, S.D. male rats
- conditions: rat, blood, po, 100 mg/kg, rats, oral 100 mg/kg, 4.000 h

smiles record: CCn1c(CC[C@@H]2CCCN2C(=O)[C@H]2CCCN2CC(=O)O)cc2ccc(C(=N)N)cc21
concentration at 4 h, µg/mL: 0.035

###

- assay details: Pharmacokinetic test in rats (intravenous injection and oral administration)
- Type: in vivo, S.D. male rats
- conditions: rat, blood, po, 100 mg/kg, oral 100 mg/kg, 6.000 h; read-out: Blood concentration, individual rats (Rat-1 to Rat-5)

smiles record: CCn1c(CC[C@@H]2CCCN2C(=O)[C@H]2CCCN2CC(=O)O)cc2ccc(C(=N)N)cc21
unit abbreviation: µg/mL
concentration at 6 h: 0.09

###

Parameter: Selectivity (trypsin/thrombin). Scope: all listed entries.
- target system: human thrombin (Homo sapiens, UniProt P00734)
- Construct: purchased Sigma T-6759
- assay details: Inhibitory activity for thrombin (chromogenic substrate hydrolysis, 405 nm)
- Assay type: biochemical
- conditions: IC50 for trypsin divided by IC50 for thrombin
- Method: 20 μl of each compound of the present invention was dissolved in 50% methanol in various concentrations and then added to each well of a microplate, to each of which 160 μl of the reaction medium containing 125 mM NaCl, 50 mM Tris-HCl (pH 8.0) and 2 mM synthetic substrate (N-benzoyl-Phe-Val-Arg-p-nitroanilide, Sigma B-7632) were added. […] After 20 minutes, the hydrolysis of substrate was determined by measuring the absorbance at 405 nm. […]
property: Selectivity (trypsin/thrombin)

compound: CCn1c(CC[C@@H]2CCCN2C(=O)[C@H]2CCCN2C(=O)[C@@H](N)C(C)C)cc2ccc(C(=N)N)cc21
readout value: 20.1
//
compound: CCn1c(CC[C@@H]2CCCN2C(=O)[C@H]2CCCN2C(=O)C2CCCCN2)cc2ccc(C(=N)N)cc21 (stereo partly shown)
readout value: 17.6
//
compound: CCOC(=O)CC(=O)N1CCC[C@@H]1C(=O)N1CCC[C@H]1CCc1cc2ccc(C(=N)N)cc2n1CC
readout value: 25.7
//
compound: CCn1c(CC[C@@H]2CCCN2C(=O)Cc2cccc(Cl)c2)cc2ccc(C(=N)N)cc21
readout value: 30.2

###

- assay details: Pharmacokinetic test in rats (intravenous injection and oral administration)
- Type: in vivo, S.D. male rats
- conditions: rat, blood, iv, 10 mg/kg, rats, i.v. 10 mg/kg, 6.000 h; read-out: Blood concentration, Mean

smiles record: CCn1c(CC[C@@H]2CCCN2C(=O)[C@H]2CCCN2CC(=O)O)cc2ccc(C(=N)N)cc21
unit abbreviation: ng/mL
concentration at 6 h: 28

###

- assay details: Pharmacokinetic test in rats (intravenous injection and oral administration)
- Format: in vivo, S.D. male rats
- conditions: rat, blood, iv, 10 mg/kg, rats, i.v. 10 mg/kg, 0.250 h
- Method: S.D. male rats weighing 200±20 g which had fasted overnight were subjected to cannulation at their femoral veins and arteries. […] The mixture was centrifuged (15,000 rpm, 5 min., 4° C.) to obtain quantitative amount of the supernatant which was then subjected to HPLC in Diode Array Detector at 254 nm to analyse the concentration of the test compound in the blood.
property: concentration at 0.25 h (ng/mL)

smiles record: CCn1c(CC[C@@H]2CCCN2C(=O)[C@H]2CCCN2CC(=O)O)cc2ccc(C(=N)N)cc21
unit abbreviation: ng/mL
readout value: 4150

###

- assay details: Pharmacokinetic test in rats (intravenous injection and oral administration)
- Type: in vivo, S.D. male rats
- conditions: rat, blood, po, 100 mg/kg, rats, oral 100 mg/kg, 6.000 h; read-out: Blood concentration, Mean

smiles record: CCn1c(CC[C@@H]2CCCN2C(=O)[C@H]2CCCN2CC(=O)O)cc2ccc(C(=N)N)cc21
concentration at 6 h / ng/mL: 28

###

- Test system: trypsin
- assay details: Inhibitory activity for trypsin
- Type: biochemical
pIC50: −log10 of the molar value.

molecule: CCn1c(CC[C@@H]2CCCN2C(=O)[C@H]2CCCN2C(=O)CCC(=O)O)cc2ccc(C(=N)N)cc21 [Compound 177]
pIC50: 6.30
--
molecule: CCn1c(CC[C@@H]2CCCN2C(=O)[C@H]2CCCN2CC(N)=O)cc2ccc(C(=N)N)cc21 [Compound 114]
pIC50: 6.30
--
molecule: CCn1c(CC[C@@H]2CCCN2C(=O)[C@H]2CCCN2C(C)=O)cc2ccc(C(=N)N)cc21 [Compound 171]
pIC50: 6.43
--
molecule: CCn1c(CC[C@@H]2CCCN2C(=O)[C@H]2CCCN2C(=O)C[C@H](N)C(N)=O)cc2ccc(C(=N)N)cc21 [Compound 160]
pIC50: 6.42

###

IC50 values recorded for human thrombin (Homo sapiens, UniProt P00734)
property: IC50 (nM)

compound: CCn1c(CC[C@@H]2CCCN2C(=O)[C@H]2CCCN2C(=O)CC(C)O)cc2ccc(C(=N)N)cc21 (stereo partly drawn)
readout value: 11
--
compound: CCn1c(CC[C@@H]2CCCN2C(=O)C2CCCCN2CC(=O)OC)cc2ccc(C(=N)N)cc21 (stereo partly drawn)
readout value: 33.8
--
compound: CCC(N)C(=O)N1CCC[C@@H]1C(=O)N1CCC[C@H]1CCc1cc2ccc(C(=N)N)cc2n1CC (stereo partly drawn)
readout value: 25.3
--
compound: CCn1c(CC[C@@H]2CCCN2C(=O)CC2CCCCC2)cc2ccc(C(=N)N)cc21
readout value: 28.9
--
compound: CCn1c(CC[C@@H]2CCCN2C(=O)[C@H]2CCCN2C(=O)C[C@H](NS(C)(=O)=O)C(=O)O)cc2ccc(C(=N)N)cc21
readout value: 19.4
--
compound: CCn1c(CC[C@@H]2CCCN2C(=O)CNC2CC2)cc2ccc(C(=N)N)cc21
readout value: 7.73
--
compound: CCn1c(CC[C@@H]2CCCN2C(=O)C(c2ccccc2)C2CCCC2)cc2ccc(C(=N)N)cc21 (stereo partly drawn)
readout value: 9.01
--
compound: Cn1c(CC[C@@H]2CCCN2Cc2c(C(N)=O)sc3ccccc23)cc2ccc(C(=N)N)cc21
readout value: 33.9
--
compound: CCOC(=O)CCCCCN1CCC[C@@H]1C(=O)N1CCC[C@H]1CCc1cc2ccc(C(=N)N)cc2n1CC
readout value: 36.5
--
compound: CCn1c(CC[C@@H]2CCCN2C(=O)[C@H]2CCCN2C(=O)CC(C)N)cc2ccc(C(=N)N)cc21 (stereo partly drawn)
readout value: 26.9
--
compound: CCn1c(CC[C@H]2C[C@H](C)CN2C(=O)[C@H]2CCCN2CC(=O)O)cc2ccc(C(=N)N)cc21
readout value: 20.3
--
compound: CCn1c(CC[C@@H]2CCCN2C(=O)[C@H]2CCCN2C(=O)CCC(=O)O)cc2ccc(C(=N)N)cc21
readout value: 18.8
--
compound: CCn1c(CC[C@@H]2CCCN2C(=O)C(C)N(CC(=O)O)C2CC2)cc2ccc(C(=N)N)cc21 (stereo partly drawn)
readout value: 22.1
--
compound: CCn1c(CC[C@@H]2CCCN2C(=O)[C@H]2CCCN2C(=O)CCN)cc2ccc(C(=N)N)cc21
readout value: 11.6
--
compound: CCn1c(CC[C@@H]2CCCN2C(=O)[C@H]2CCCN2CCCCCC(=O)O)cc2ccc(C(=N)N)cc21
readout value: 9.29
--
compound: CCOC(=O)CN(CC(=O)N1CCC[C@H]1CCc1cc2ccc(C(=N)N)cc2n1CC)C1CC1
readout value: 11.7
--
compound: CCOC(=O)CCCN1CCC[C@@H]1C(=O)N1CCC[C@H]1CCc1cc2ccc(C(=N)N)cc2n1CC
readout value: 40.5
--
compound: CCOC(=O)CN1CCC[C@@H]1C(=O)N1CCC[C@H]1CCc1cc2ccc(C(=N)N)cc2n1C
readout value: 51.6
--
compound: CCn1c(CC[C@@H]2CCCN2C(=O)C2CCCNC2)cc2ccc(C(=N)N)cc21 (stereo partly drawn)
readout value: 31.7
--
compound: CCn1c(CC[C@@H]2CCCN2C(=O)CN(C2CC2)S(C)(=O)=O)cc2ccc(C(=N)N)cc21
readout value: 3
--
compound: CCn1c(CC[C@@H]2CCCN2C(=O)Cc2cccc(Cl)c2)cc2ccc(C(=N)N)cc21
readout value: 20.1
--
compound: CCCC(CCC)C(=O)N1CCC[C@@H]1C(=O)N1CCC[C@H]1CCc1cc2ccc(C(=N)N)cc2n1CC
readout value: 34.6
--
compound: CCOC(=O)CCC(=O)N1CCC[C@@H]1C(=O)N1CCC[C@H]1CCc1cc2ccc(C(=N)N)cc2n1CC
readout value: 21.7
--
compound: CCOC(=O)C(c1ccccc1)N1CCC[C@@H]1C(=O)N1CCC[C@H]1CCc1cc2ccc(C(=N)N)cc2n1CC (stereo partly drawn)
readout value: 29.2
--
compound: CCn1c(CC[C@@H]2CCCN2C(=O)[C@H]2CCCN2CCCCC(=O)O)cc2ccc(C(=N)N)cc21
readout value: 13.1
--
compound: CCn1c(CC[C@@H]2CCCN2C(=O)[C@H]2CCCN2C(=O)[C@@H](N)CC(N)=O)cc2ccc(C(=N)N)cc21
readout value: 23
--
compound: CCn1c(CCC2CCCN2C(=O)C2CCCN2C(CCO)C(=O)O)cc2ccc(C(=N)N)cc21 (stereo not drawn)
readout value: 12.3
